These data points were gathered from ChEMBL document CHEMBL5365401.

biological target: Aryl hydrocarbon receptor (Homo sapiens, UniProt P35869); experiment: Agonist activity at AHR in human HepG2-Lucia AhR cells stably transfected with DRE by luciferase reporter assay
Sequence (P35869 whole entry): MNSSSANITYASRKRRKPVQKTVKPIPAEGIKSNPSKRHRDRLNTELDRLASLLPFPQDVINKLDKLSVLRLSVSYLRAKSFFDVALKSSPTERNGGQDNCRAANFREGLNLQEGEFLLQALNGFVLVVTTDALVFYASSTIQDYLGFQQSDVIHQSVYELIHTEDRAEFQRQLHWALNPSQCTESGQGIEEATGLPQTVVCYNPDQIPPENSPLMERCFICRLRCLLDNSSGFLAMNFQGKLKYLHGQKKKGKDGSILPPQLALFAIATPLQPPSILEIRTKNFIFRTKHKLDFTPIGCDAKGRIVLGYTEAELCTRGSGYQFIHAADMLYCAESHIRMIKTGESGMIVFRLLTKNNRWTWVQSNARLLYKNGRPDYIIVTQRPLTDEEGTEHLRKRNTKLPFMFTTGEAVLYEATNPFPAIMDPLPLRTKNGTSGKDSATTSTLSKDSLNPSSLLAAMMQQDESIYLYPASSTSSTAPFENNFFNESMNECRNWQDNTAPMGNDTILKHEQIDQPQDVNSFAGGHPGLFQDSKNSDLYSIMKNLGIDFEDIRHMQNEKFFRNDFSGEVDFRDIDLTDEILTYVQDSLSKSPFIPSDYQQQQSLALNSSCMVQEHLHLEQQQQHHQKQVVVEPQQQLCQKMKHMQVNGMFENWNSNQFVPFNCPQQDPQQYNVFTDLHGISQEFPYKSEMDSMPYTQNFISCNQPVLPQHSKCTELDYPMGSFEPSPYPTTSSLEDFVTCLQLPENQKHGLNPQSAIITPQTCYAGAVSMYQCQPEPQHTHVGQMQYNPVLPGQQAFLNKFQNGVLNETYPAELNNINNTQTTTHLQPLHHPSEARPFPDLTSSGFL
pEC50: −log10 of the molar value.
Measured pEC50, listed per entry for reference.

Completed entries (count: 2):
Cc1[nH]c2ccccc2c1/C=C1\NC(=S)N(C)C1=O :: < 5.00
O=C1NC(=S)N/C1=C\c1c[nH]c2ccccc12 :: < 5.00

Quick check: pEC50 of `O=C1NC(=O)/C(=C/c2c[nH]c3ccccc23)N1` ?
< 5.00
